system: Escherichia coli; assay: minimum inhibitory concentration (MIC); details: isolate (source animal id): 112
Property: minimum inhibitory concentration; scope: individual compounds

Could you share what minimum inhibitory concentration was measured for CO/N=C(\C(=O)N[C@@H]1C(=O)N2C(C(=O)O)=C(CSC(=O)c3ccco3)CS[C@H]12)c1csc(N)n1 , tested on Escherichia coli?
≤ 0.25 µg/mL

Next entry: NC[C@@H]1O[C@H](O[C@H]2[C@@H](O)[C@H](O[C@@H]3[C@@H](O)[C@H](N)C[C@H](N)[C@H]3O[C@H]3O[C@H](CN)[C@@H](O)[C@H](O)[C@H]3N)O[C@@H]2CO)[C@H](N)[C@@H](O)[C@@H]1O
> 32 µg/mL

Next entry: CCC[C@@H]1C[C@@H](C(=O)N[C@@H]([C@H]2O[C@H](SC)[C@H](O)[C@@H](O)[C@H]2O)[C@H](C)Cl)N(C)C1
> 16 µg/mL

Next entry: CN1C[C@@H]2C[C@H]1CN2c1cc2c(cc1F)c(=O)c(C(=O)O)cn2C1CC1
≤ 0.12 µg/mL

Next entry: CCN1CCN(c2cc3c(cc2F)c(=O)c(C(=O)O)cn3C2CC2)CC1
≤ 0.12 µg/mL

Next entry: COc1cc(Cc2cnc(N)nc2N)cc(OC)c1OC.Cc1cc(NS(=O)(=O)c2ccc(N)cc2)no1
≤ 2 µg/mL

Next entry: CS(=O)(=O)c1ccc([C@@H](O)[C@@H](CF)NC(=O)C(Cl)Cl)cc1
> 8 µg/mL

Next entry: CC1(C)S[C@@H]2[C@H](NC(=O)Cc3ccccc3)C(=O)N2[C@H]1C(=O)O
> 8 µg/mL

Next entry: CC1(C)S[C@@H]2[C@H](NC(=O)[C@H](N)c3ccccc3)C(=O)N2[C@H]1C(=O)O
2 µg/mL

* * *

tested on: Pasteurella multocida; test: minimum inhibitory concentration (MIC); conditions: isolate (source animal id): 124
Property: minimum inhibitory concentration; scope: individual compounds

Example entries and their recorded answers appear below.
Quick one: minimum inhibitory concentration for C=C[C@]1(C)C[C@@H](OC(=O)CSCCN(CC)CC)[C@]2(C)[C@H](C)CC[C@]3(CCC(=O)[C@H]32)[C@@H](C)[C@@H]1O ?
32 µg/mL

Next entry: CCCNC[C@]1(O)[C@H](C)O[C@@H](O[C@H]2[C@H](C)[C@@H](O[C@@H]3O[C@H](C)C[C@H](N(C)C)[C@H]3O)[C@](C)(O)C[C@@H](C)CN[C@H](C)[C@@H](O)[C@](C)(O)[C@@H](CC)OC(=O)[C@@H]2C)C[C@@]1(C)OC
≤ 8 µg/mL

Could you now consider this next compound?
Quick one: minimum inhibitory concentration for CC[C@H]1OC(=O)C[C@@H](O)[C@H](C)[C@@H](O[C@@H]2O[C@H](C)[C@@H](O)[C@H](N(C)C)[C@H]2O)[C@@H](CCN2CCCCC2)C[C@@H](C)C(=O)/C=C/C(C)=C/[C@@H]1CN1CCCCC1 ?
> 16 µg/mL

* * *

test system: Histophilus somni; assay: minimum inhibitory concentration (MIC); conditions: isolate (source animal id): 278
observed_property: minimum inhibitory concentration

Could you share what minimum inhibitory concentration was measured for C=C[C@]1(C)C[C@@H](OC(=O)CSCCN(CC)CC)[C@]2(C)[C@H](C)CC[C@]3(CCC(=O)[C@H]32)[C@@H](C)[C@@H]1O , tested on Histophilus somni?
1 µg/mL

Next entry: CC[C@H]1OC(=O)C[C@@H](O)[C@H](C)[C@@H](O[C@@H]2O[C@H](C)[C@@H](O)[C@H](N(C)C)[C@H]2O)[C@@H](CCN2C[C@H](C)C[C@H](C)C2)C[C@@H](C)C(=O)/C=C/C(C)=C/[C@@H]1CO[C@@H]1O[C@H](C)[C@@H](O)[C@@H](OC)[C@H]1OC
≤ 2 µg/mL

Next entry: COc1cc(Cc2cnc(N)nc2N)cc(OC)c1OC.Cc1cc(NS(=O)(=O)c2ccc(N)cc2)no1
≤ 2 µg/mL

Next entry: CCCNC[C@]1(O)[C@H](C)O[C@@H](O[C@H]2[C@H](C)[C@@H](O[C@@H]3O[C@H](C)C[C@H](N(C)C)[C@H]3O)[C@](C)(O)C[C@@H](C)CN[C@H](C)[C@@H](O)[C@](C)(O)[C@@H](CC)OC(=O)[C@@H]2C)C[C@@]1(C)OC
≤ 8 µg/mL

Next entry: CCCN1C[C@H](C)[C@@H](O)[C@](C)(O)[C@@H](CC)OC(=O)[C@H](C)[C@@H](O[C@H]2C[C@@](C)(OC)[C@@H](O)[C@H](C)O2)[C@H](C)[C@@H](O[C@@H]2O[C@H](C)C[C@H](N(C)C)[C@H]2O)[C@](C)(O)C[C@H]1C
≤ 1 µg/mL
